Study target: Gal(b1-4)GlcNAc
Measurement protocol: glycan array binding signal (z-score within array); higher = stronger binding
Conditions: glycan notation: IUPAC condensed, linker removed
Only a selection was taken, and the strongest signals are over-represented in it overall.
Outcome: yes for glycan array binding signal (z-score) of at least -0.2; no for anything lower.

Worked examples, 4 binders total:
# input Hi team, for F4 (Escherichia coli), A0A6L9DDF0 (protein) MKKTLIALALAASAVSGMAHAWTSGDFNGTVDIGGSIDATNYRQKWEWEVGTGLNGFYNALSELTNNDTKLTITVTGNKPILLGRTKEAFVTPTAGGWGGIPQIAFTDYKGAPVELKNPDGETNKGLAYFVLPMKNADGTEAGSVRVNASYAGAVVEKTSDSSAKLFSAYAGEVIRIFNGGLPVNVTQSELQSGVAAADRTALFGSLGKADLVAQFQAVIPGATVTDGTSSEHCTMRLLASAAYALGIADGQTIEATFNQAVTTSTQWSAPLNVAITYY , is the recorded glycan array binding signal (z-score) at or above -0.2?
# output yes

# input Hi team, for LecB LY19 (Pseudomonas aeruginosa) (protein) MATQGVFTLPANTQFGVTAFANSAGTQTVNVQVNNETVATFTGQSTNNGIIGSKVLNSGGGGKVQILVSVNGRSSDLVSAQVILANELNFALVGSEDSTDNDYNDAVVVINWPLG , is the recorded glycan array binding signal (z-score) at or above -0.2?
# output no

# input Hi team, for RSVL (Crotalus atrox), P21963 (protein) NNCPLDWLPMNGLCYKIFNQLKTWEDAEMFCRKYKPGCHLASFHRYGESLEIAEYISDYHKGQENVWIGLRDKKKDFSWEWTDRSCTDYLTWDKNQPDHYQNKEFCVELVSLTGYRLWNDQVCESKDAFLCQCKF , is the recorded glycan array binding signal (z-score) at or above -0.2?
# output yes

# input Hi team, for FimA-N1 (Actinomyces oris) (protein) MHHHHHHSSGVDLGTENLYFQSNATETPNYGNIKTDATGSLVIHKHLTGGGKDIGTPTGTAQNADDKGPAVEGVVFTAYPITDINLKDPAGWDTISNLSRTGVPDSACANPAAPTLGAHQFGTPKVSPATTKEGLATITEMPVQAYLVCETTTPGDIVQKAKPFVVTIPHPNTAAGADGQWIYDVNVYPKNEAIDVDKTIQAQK , is the recorded glycan array binding signal (z-score) at or above -0.2?
# output yes

Now for a further binder.
# input Hi team, for ConA (Canavalia ensiformis), P02866 (protein) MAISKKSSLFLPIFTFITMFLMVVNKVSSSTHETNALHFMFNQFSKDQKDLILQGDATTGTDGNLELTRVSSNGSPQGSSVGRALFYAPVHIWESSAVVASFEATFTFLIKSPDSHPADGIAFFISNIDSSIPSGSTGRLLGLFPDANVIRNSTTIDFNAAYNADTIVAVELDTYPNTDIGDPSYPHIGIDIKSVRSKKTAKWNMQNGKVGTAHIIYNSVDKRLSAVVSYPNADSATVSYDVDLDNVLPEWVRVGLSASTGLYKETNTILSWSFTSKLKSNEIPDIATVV , is the recorded glycan array binding signal (z-score) at or above -0.2?
# output no
